- TARGET ENTITY: N1P1 (NHERF1 PDZ domain 1) (Homo sapiens, UniProt O14745)
- Sequence (O14745 14-94 limits assumed): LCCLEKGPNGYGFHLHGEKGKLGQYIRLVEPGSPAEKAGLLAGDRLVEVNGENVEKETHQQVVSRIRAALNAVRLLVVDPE
- PROCEDURE SUMMARY: Fluorescence polarization
- Type: binding
pKi: −log10 of the molar value. No end group written: not given here.
QUANTITY: pKi

Q) Look up pKi for this sequence: SRWPTSII [iCAL36_8]
A) < 2.30
